- Target under test: Baculoviral IAP repeat-containing protein 3/Mucosa-associated lymphoid tissue lymphoma translocation protein 1 (Homo sapiens, UniProt Q13489+Q9UDY8)
- Sequence (Q13489 whole entry, one chain of several, the tested form may be a part): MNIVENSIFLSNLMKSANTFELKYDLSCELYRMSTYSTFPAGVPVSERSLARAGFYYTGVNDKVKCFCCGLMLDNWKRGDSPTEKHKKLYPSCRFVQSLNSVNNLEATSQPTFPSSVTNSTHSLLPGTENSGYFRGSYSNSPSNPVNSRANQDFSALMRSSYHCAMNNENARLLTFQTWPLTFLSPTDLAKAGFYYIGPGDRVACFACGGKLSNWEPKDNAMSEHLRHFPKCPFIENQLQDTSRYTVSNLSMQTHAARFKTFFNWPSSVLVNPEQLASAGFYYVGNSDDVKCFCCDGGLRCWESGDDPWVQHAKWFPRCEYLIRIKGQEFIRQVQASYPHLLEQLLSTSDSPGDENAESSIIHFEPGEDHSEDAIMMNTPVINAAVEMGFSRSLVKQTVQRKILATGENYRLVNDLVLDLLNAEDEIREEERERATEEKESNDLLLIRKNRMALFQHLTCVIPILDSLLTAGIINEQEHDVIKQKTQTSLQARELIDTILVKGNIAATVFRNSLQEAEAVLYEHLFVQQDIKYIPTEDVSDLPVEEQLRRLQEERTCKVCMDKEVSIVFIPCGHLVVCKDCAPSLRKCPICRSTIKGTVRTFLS
- Measurement description: Allosteric inhibition of MALT1-cIAP2 (unknown origin) fusion protein expressed in HEK293 cells assessed as reduction in NF-KappaB activation by luciferase reporter gene assay
Attribute measured: IC50 (nM)
Output spec: scalar in nM, unitless text.

In plain terms, C[C@H]1COC[C@H](C)N1c1c(NC(=O)Nc2ccnc(C(F)(F)F)c2)cnc2cc(Cl)nn12 has a documented IC50 of 140

###

- Measurement description: Oral bioavailability in Sprague-Dawley rat at 1.25 mg/kg administered as solution
- Type: ADME, organism-based
- Reported conditions: in vivo
Attribute measured: bioavailability (%)
Output spec: scalar in %, unitless text.

In plain terms, COc1ncc(NC(=O)Nc2cnc3ccc(C#N)cc3c2N2CCOC[C@@H]2C)cc1Cl has a documented bioavailability of 42

###

- Target under test: Mucosa-associated lymphoid tissue lymphoma translocation protein 1 (Homo sapiens, UniProt Q9UDY8)
- Measurement description: Allosteric inhibition of MALT1 in human OCI-LY3 cells assessed as reduction in BCL10 cleavage measured after 24 hrs by ELISA
- Assay type: cell-based, OCILY3
Threshold-based label: IC50 under 2000 nM gives Met, IC50 not under 2000 nM gives Not met.

Take a look at these entries with their results.
{"Compound": "COc1ccc(NC(=O)Nc2cnc3ccc(C#N)cc3c2N2CCOC[C@@H]2C)cc1Cl", "Qualitative label": "Met"}
{"Compound": "COc1ccc(NC(=O)Nc2cnc3ccc(C#N)cc3c2N(C)C2CCOCC2)cc1Cl", "Qualitative label": "Met"}
{"Compound": "COc1ccc(NC(=O)NC2COc3ccccc3C2)cc1Cl (racemic)", "Qualitative label": "Not met"}
{"Compound": "COc1ccc(NC(=O)Nc2cnc3ccc(Br)cc3c2)cc1Cl", "Qualitative label": "Not met"}

Query: Is IC50 of COc1ncc(NC(=O)NC2COc3ccc(Br)cc3C2)cc1Cl (configuration not stated) strictly below 2000 nM?
Result: Not met

Query: Is IC50 of COc1ncc(NC(=O)Nc2cnc3cc(Cl)nn3c2N2CCOCC2(C)C)cc1Cl strictly below 2000 nM?
Result: Met

Query: Is IC50 of COc1ccc(NC(=O)NC2COc3ccc(C#N)cc3C2)cc1Cl (racemic) strictly below 2000 nM?
Result: Met

Query: Is IC50 of COc1ncc(NC(=O)Nc2cnc3cc(Br)nn3c2N2CCOC[C@@H]2C)cc1Cl strictly below 2000 nM?
Result: Met

Query: Is IC50 of COc1ncc(NC(=O)Nc2cnc3ccc(C#N)cc3c2N2CCOC[C@@H]2C)cc1Cl strictly below 2000 nM?
Result: Met

Query: Is IC50 of COc1ccc(NC(=O)NC2COc3ccc(F)cc3C2)cc1Cl (racemic) strictly below 2000 nM?
Result: Met

Query: Is IC50 of COc1ncc(NC(=O)Nc2cnc3cc(Cl)nn3c2N2[C@@H](C)COC[C@@H]2C)cc1Cl strictly below 2000 nM?
Result: Met

###

- Target under test: Mucosa-associated lymphoid tissue lymphoma translocation protein 1 (Homo sapiens, UniProt Q9UDY8)
- Sequence (Q9UDY8 whole entry): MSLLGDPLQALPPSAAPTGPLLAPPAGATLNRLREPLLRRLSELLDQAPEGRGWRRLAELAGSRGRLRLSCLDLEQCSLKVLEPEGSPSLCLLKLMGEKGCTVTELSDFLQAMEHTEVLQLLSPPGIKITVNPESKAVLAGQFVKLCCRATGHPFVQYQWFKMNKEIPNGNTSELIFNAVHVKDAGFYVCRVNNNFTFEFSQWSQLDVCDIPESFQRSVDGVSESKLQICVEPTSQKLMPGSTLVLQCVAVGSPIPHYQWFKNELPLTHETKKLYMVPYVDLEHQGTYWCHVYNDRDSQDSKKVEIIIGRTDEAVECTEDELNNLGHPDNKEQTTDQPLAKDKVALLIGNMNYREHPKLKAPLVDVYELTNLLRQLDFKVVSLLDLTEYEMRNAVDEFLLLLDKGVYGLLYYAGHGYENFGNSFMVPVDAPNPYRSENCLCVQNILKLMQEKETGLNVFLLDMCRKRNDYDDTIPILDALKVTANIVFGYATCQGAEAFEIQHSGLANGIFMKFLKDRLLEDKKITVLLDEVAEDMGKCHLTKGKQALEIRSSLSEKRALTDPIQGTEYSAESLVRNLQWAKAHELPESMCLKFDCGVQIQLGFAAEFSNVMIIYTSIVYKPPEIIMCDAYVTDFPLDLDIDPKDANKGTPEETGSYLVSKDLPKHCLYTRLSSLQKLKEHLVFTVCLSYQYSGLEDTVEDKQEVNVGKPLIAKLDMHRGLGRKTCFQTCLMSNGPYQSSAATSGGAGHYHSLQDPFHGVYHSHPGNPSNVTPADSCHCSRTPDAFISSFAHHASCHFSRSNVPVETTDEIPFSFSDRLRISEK
- Measurement description: Allosteric inhibition of human wild-type […] MALT1 (329 to 824 residues) protease activity using Ac-Leu-Arg-Ser-Arg Rh110-dPro as substrate preincubated for 60 mins followed by substrate addition and measured after 60 mins by fluorescence assay
# Lookup of reported log10 IC50 keyed by entry
# values: log10(IC50), units nM

Please review the following examples before continuing.
{"Compound": "COc1ncc(NC(=O)Nc2cnc3cc(Br)nn3c2N2CCOC[C@@H]2C)cc1Cl", "Value": 1.23}
{"Compound": "COc1ccc(NC(=O)Nc2cnc3ccc(Br)cc3c2)cc1Cl", "Value": 2.38}
{"Compound": "COc1ccc(NC(=O)NC2COc3ccccc3C2)cc1Cl (racemic)", "Value": 2.39}
{"Compound": "COc1ccc(NC(=O)NC2CSc3ccc(F)cc3C2)cc1Cl (racemic)", "Value": 2.16}
{"Compound": "COc1ccc(NC(=O)N[C@H]2COc3ccccc3C2)cc1Cl", "Value": 2.13}

In plain terms, COc1ncc(NC(=O)NC2COc3ccc(Br)cc3C2)cc1Cl (stereo unspecified) has a documented log10 IC50 of 1.49
